# Tested on: RARa:RXR (NR concentration 270 nM, RXRa partner concentration 90 nM)
# Experimental details: PBM binding z-score (relative to random genomic background probes); higher = stronger binding; sequences stand for … in GC…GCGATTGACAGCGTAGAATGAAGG
Property name: PBM binding z-score
Give the figure only, with no unit attached.

The value of PBM binding z-score measured for the sequence `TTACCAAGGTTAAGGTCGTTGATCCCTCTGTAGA` turned out to be 3.04

The value of PBM binding z-score measured for the sequence `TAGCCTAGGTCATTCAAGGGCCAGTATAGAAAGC` turned out to be 2.93

The value of PBM binding z-score measured for the sequence `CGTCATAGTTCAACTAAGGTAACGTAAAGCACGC` turned out to be 2.73

The value of PBM binding z-score measured for the sequence `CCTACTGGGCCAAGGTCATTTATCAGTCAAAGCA` turned out to be 3.28

The value of PBM binding z-score measured for the sequence `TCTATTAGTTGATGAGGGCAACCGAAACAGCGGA` turned out to be 0.981

The value of PBM binding z-score measured for the sequence `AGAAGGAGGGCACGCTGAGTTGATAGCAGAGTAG` turned out to be 0.766

The value of PBM binding z-score measured for the sequence `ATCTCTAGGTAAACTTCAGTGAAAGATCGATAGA` turned out to be 0.344

The value of PBM binding z-score measured for the sequence `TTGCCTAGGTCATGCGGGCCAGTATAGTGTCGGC` turned out to be 2.31

The value of PBM binding z-score measured for the sequence `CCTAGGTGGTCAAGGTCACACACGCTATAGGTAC` turned out to be 4.44

The value of PBM binding z-score measured for the sequence `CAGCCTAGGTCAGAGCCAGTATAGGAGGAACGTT` turned out to be 0.723

The value of PBM binding z-score measured for the sequence `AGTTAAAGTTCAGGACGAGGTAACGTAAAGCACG` turned out to be 2.66

The value of PBM binding z-score measured for the sequence `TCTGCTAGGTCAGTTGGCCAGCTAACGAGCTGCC` turned out to be 0.0154

The value of PBM binding z-score measured for the sequence `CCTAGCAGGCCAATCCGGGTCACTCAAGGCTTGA` turned out to be 2.23

The value of PBM binding z-score measured for the sequence `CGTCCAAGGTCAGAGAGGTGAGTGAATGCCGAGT` turned out to be 3.43

The value of PBM binding z-score measured for the sequence `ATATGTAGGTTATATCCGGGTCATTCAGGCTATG` turned out to be 3.9

The value of PBM binding z-score measured for the sequence `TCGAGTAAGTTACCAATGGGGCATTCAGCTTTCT` turned out to be 0.11

The value of PBM binding z-score measured for the sequence `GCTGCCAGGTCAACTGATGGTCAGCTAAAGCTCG` turned out to be 4.22

The value of PBM binding z-score measured for the sequence `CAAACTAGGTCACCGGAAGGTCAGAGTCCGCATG` turned out to be 6.14

The value of PBM binding z-score measured for the sequence `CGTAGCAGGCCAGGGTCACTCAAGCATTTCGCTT` turned out to be 2.69

The value of PBM binding z-score measured for the sequence `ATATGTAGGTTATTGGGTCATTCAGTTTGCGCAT` turned out to be 3.36

The value of PBM binding z-score measured for the sequence `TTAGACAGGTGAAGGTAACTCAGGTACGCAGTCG` turned out to be 0.387

The value of PBM binding z-score measured for the sequence `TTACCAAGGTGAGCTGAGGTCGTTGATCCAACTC` turned out to be 1.72

The value of PBM binding z-score measured for the sequence `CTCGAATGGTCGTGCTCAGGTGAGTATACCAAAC` turned out to be 0.107

The value of PBM binding z-score measured for the sequence `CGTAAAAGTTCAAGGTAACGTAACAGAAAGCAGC` turned out to be 2.92

The value of PBM binding z-score measured for the sequence `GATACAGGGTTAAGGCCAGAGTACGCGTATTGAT` turned out to be 1.28

The value of PBM binding z-score measured for the sequence `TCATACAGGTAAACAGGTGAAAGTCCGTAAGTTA` turned out to be 1.42
